Each recorded value in this set is attributed to patent US9670213B2.

system: SK-BR-3 (breast cancer cells, Her2 overexpression); test: Cell proliferation and growth inhibition analysis; format: cell-based; conditions: Homo sapiens; SK-BR-3 cells, 72 hours; read-out: Inhibitory activity on cell proliferation (IC50, μM) SK-BR-3
# IC50 values compiled below
Report as a plain number; the unit µM is understood.

Before answering, review these 3 worked examples.
Form field IC50, entry C=CC(=O)Nc1cccc(-n2c(=O)cnc3cnc(Nc4ccc(OC)cc4)nc32)c1 [Compound 006] : 2.35

Form field IC50, entry COc1ccc(Nc2ncc3ncc(=O)n(-c4ccc(NC(=O)/C=C/CN(C)C)cc4)c3n2)cc1 [Compound 009] : 1.15

Form field IC50, entry C=CC(=O)Nc1ccc(-n2c(=O)cnc3cnc(Nc4ccc(OC)cc4)nc32)cc1 [Compound 002] : 1.57

Proceeding to the next compound to report its IC50.
Form field IC50, entry COc1ccc(Nc2ncc3ncc(=O)n(-c4cccc(NC(=O)/C=C/CN(C)C)c4)c3n2)cc1 [Compound 010] : 7.17

---

biological target: EGFR-L858R (Homo sapiens (Human), UniProt P00533, L858R); test: In vitro EGFR kinase activity assay (Z'-Lyte); type: biochemical; settings: read-out: Inhibitory activity on EGFR kinase (IC50, nM) L858R;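 also: Cell-free kinase reaction with peptide substrate and ATP, 1.5 h at room temperature, then development step cleaving non-phosphorylated peptide, 10-point dilution series 0.051–1000 nM, phosphopeptide as 100% phosphorylation control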
Sequence (P00533 25-1210 L858R): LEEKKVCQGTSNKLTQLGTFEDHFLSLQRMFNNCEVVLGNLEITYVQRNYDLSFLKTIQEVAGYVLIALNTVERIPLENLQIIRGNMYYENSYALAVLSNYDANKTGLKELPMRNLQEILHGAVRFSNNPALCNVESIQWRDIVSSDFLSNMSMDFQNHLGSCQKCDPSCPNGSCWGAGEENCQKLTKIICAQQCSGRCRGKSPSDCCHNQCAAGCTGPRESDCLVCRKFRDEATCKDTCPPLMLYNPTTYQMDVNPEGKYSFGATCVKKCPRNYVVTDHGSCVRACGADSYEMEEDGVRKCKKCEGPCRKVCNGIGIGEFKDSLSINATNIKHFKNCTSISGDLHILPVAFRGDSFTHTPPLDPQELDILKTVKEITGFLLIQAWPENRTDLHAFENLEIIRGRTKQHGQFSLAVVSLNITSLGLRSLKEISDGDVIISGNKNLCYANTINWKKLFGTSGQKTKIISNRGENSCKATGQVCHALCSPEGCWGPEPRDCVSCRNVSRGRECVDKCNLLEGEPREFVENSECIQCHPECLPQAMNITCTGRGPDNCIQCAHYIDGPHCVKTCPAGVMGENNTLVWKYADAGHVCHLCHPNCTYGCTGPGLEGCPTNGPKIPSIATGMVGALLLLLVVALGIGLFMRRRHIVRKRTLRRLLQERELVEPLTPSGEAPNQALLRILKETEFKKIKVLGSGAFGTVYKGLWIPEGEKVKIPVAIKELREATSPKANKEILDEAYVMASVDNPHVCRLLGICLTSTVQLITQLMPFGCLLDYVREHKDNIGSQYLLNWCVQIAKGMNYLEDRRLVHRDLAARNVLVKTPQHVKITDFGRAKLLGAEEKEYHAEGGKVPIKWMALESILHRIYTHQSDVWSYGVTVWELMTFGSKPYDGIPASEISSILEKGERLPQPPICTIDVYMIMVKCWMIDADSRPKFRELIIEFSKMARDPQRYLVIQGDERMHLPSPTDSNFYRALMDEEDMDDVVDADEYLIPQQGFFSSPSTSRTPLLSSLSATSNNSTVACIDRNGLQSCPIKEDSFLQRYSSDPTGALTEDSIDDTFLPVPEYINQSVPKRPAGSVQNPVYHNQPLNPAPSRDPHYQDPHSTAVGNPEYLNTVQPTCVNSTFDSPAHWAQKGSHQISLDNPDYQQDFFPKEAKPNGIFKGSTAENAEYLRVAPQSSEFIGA
# IC50 values compiled below
Report as a plain number; the unit nM is understood.

Form field IC50, entry `C=CC(=O)Nc1ccc(-n2c(=O)cnc3cnc(Nc4ccc(N5CCN(C)CC5)cc4)nc32)cc1` : 6380

Others:
Form field IC50, entry `C=CC(=O)Nc1cccc(-n2c(=O)cnc3cnc(Nc4ccc(N5CCOCC5)cc4)nc32)c1` : 5.83

Form field IC50, entry `C=CC(=O)Nc1cccc(-n2c(=O)cnc3cnc(Nc4ccc(N5CCCC5)cc4)nc32)c1` : 12.6

---

target: FLT3 (Homo sapiens (Human), UniProt P36888); test: FLT3 kinase activity assay (Caliper); assay type: biochemical; conditions: read-out: Inhibitory activity on kinase (IC50, nM) FLT3
Sequence (P36888 27-993): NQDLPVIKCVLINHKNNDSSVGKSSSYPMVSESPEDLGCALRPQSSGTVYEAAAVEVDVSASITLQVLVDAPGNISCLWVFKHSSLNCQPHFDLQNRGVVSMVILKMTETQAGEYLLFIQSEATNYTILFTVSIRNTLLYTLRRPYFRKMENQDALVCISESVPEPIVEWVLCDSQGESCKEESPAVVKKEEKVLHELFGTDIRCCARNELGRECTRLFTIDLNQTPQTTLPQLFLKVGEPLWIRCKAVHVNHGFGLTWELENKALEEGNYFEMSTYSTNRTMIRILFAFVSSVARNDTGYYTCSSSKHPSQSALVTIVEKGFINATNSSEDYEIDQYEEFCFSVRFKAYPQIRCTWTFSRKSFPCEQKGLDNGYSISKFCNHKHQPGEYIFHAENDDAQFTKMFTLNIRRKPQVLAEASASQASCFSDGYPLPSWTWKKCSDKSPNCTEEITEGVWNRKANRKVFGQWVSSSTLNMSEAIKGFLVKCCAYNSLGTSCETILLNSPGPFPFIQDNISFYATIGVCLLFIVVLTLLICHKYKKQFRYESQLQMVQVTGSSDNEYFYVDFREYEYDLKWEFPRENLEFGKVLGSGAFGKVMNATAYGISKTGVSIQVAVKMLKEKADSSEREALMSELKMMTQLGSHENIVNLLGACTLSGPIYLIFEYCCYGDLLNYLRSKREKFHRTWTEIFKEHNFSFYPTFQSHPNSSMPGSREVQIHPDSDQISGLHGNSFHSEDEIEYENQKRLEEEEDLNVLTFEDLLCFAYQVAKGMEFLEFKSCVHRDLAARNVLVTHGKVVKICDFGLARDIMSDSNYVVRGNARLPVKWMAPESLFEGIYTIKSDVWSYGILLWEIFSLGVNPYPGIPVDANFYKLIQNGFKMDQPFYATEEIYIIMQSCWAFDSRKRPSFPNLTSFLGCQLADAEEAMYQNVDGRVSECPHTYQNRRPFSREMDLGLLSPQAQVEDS
recorded metric: IC50 (nM)
Report as a plain number; the unit nM is understood.

Form field IC50, entry `CCC(=O)Nc1cccc(-n2c(=O)cnc3cnc(Nc4ccc(OC)cc4)nc32)c1` : 1490

Form field IC50, entry `COc1ccc(Nc2ncc3ncc(=O)n(-c4ccc(N)cc4)c3n2)cc1` : 27

Form field IC50, entry `C=CC(=O)Nc1cccc(-n2c(=O)cnc3cnc(Nc4ccc(N5CCCC5)cc4)nc32)c1` : 1080

Form field IC50, entry `CCC(=O)Nc1ccc(-n2c(=O)cnc3cnc(Nc4ccc(OC)cc4)nc32)cc1` : 115

---

tested on: HCC827 (non-small cell lung cancer cells, EGFR del E746-A750); assay: Cell proliferation and growth inhibition analysis; type: cell-based; conditions: Homo sapiens, 72 hours, read-out: Inhibitory activity on cell proliferation (IC50, μM) HCC827
Mark Criterion met only when IC50 stays strictly below 2 µM. Values equal to the cut-off are Criterion not met.

Take the molecule `C=CC(=O)Nc1cccc(-n2c(=O)cnc3cnc(Nc4ccc(Cl)cc4)nc32)c1` and say whether its IC50 is less than 2 µM.
Criterion met

Others:
Take the molecule `C=CC(=O)Oc1ccc(-n2c(=O)cnc3cnc(Nc4ccc(OC)cc4)nc32)cc1` and say whether its IC50 is less than 2 µM.
Criterion not met

Take the molecule `C=CC(=O)Nc1ccc(-n2c(=O)c(C)nc3cnc(Nc4ccc(OC)cc4)nc32)cc1` and say whether its IC50 is less than 2 µM.
Criterion not met

Take the molecule `C=CC(=O)Nc1cccc(-n2c(=O)cnc3cnc(Nc4ccc(N5CCN(C)CC5)cc4)nc32)c1` and say whether its IC50 is less than 2 µM.
Criterion met

Take the molecule `COc1ccc(-n2c(=O)cnc3cnc(Nc4ccc(N)cc4)nc32)cc1` and say whether its IC50 is less than 2 µM.
Criterion not met

Take the molecule `CN(C)C/C=C/C(=O)Nc1ccc(-n2c(=O)cnc3cnc(Nc4ccccc4)nc32)cc1` and say whether its IC50 is less than 2 µM.
Criterion not met

Take the molecule `COc1ccc(Nc2ncc3ncc(=O)n(-c4cccc(N)c4)c3n2)cc1` and say whether its IC50 is less than 2 µM.
Criterion not met

Take the molecule `C=CC(=O)Nc1ccc(-n2c(=O)cnc3cnc(Nc4ccccc4)nc32)cc1` and say whether its IC50 is less than 2 µM.
Criterion not met
